Measured values drawn from patent US9296725B2 for this set.

target: TYK2 (Homo sapiens); construct: endogenous in cells; host or cells: Molt4 (ATCC CRL-1582) and Ramos (ATCC CRL-1596), mixed lysate 1:2; assay: Kinobeads assay, TYK2 (competition binding in mixed Molt4/Ramos cell lysate, dot blot detection); settings: Kinobeads assay, Molt4/Ramos lysate; read-out: TYK2 Band (Kinobeads assay potency, IC50)
Sequence (P29597 whole entry): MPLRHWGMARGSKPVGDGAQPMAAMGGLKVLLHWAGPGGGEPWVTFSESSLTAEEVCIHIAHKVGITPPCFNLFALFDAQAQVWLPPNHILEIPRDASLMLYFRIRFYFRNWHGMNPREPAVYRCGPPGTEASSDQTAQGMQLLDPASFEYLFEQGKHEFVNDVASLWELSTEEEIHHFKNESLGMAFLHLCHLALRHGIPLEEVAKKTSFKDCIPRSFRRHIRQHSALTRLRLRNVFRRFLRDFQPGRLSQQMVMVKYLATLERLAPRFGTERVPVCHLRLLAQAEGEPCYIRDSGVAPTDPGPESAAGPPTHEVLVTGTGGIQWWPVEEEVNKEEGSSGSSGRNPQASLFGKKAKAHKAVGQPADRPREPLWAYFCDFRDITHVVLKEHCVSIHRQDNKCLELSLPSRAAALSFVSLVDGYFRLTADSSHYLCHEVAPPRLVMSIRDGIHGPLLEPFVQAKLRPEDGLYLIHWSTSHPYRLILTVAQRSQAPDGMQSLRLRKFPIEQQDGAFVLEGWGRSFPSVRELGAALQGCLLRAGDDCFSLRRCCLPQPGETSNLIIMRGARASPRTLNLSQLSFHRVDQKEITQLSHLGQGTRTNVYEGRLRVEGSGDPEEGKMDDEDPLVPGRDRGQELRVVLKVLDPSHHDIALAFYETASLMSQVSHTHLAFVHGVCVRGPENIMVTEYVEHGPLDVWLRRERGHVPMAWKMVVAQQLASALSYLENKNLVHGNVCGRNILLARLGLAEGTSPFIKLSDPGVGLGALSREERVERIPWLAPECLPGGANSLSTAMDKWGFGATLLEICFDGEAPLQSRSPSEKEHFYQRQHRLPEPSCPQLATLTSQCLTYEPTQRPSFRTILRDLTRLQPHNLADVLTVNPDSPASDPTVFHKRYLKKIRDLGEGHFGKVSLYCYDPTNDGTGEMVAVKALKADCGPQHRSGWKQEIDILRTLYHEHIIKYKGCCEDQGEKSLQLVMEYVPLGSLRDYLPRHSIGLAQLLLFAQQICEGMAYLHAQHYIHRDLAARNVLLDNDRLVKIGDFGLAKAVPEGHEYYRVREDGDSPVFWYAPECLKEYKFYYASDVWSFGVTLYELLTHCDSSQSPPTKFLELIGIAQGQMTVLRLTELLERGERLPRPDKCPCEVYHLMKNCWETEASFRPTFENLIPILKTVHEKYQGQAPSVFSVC
pIC50: −log10 of the molar value.
Entries annotated with measured pIC50

See these solved cases before continuing.
NC(=O)Cn1cc(Nc2ncc(Cl)c(NCc3cc(Br)cc(F)c3F)n2)cn1 [Example I-261] | 6.00 to 7.00
Fc1cc(F)c(CNc2ccnc(Nc3cnn(CCN4CCOCC4)c3)n2)c(F)c1 [Example I-112] | 7.00 to 8.00

Ask: Query pIC50 on TYK2 (Homo sapiens) for CS(=O)(=O)CCn1cc(Nc2ncc(Cl)c(NCc3ccccc3)n2)cn1 [Example I-289]
Reply: 5.00 to 6.00
